Assay: Partition coefficient (logP)
Format: physicochemical
Conditions: octanol/water
Measured Property: logP

| Compound | logP |
| --- | --- |
| CNC(=O)[C@@H](Cc1ccccc1)NP(=O)(O)OC[C@H]1OC(n2cc(C)c(=O)[nH]c2=O)C[C@H]1N=[N+]=[N-] (some centres undefined) | -1.7 |
| Cc1cn(C2C[C@@H](N=[N+]=[N-])[C@@H](COP(=O)(O)N[C@@H](Cc3c[nH]c4ccccc34)C(=O)NC3CCCCC3)O2)c(=O)[nH]c1=O (some centres undefined) | -0.914 |
| CNC(=O)[C@H](C)NP(=O)(O)OC[C@H]1OC(n2cc(C)c(=O)[nH]c2=O)C[C@H]1N=[N+]=[N-] (some centres undefined) | -1.21 |
| COC(=O)CNP(=O)(O)OC[C@H]1OC(n2cc(C)c(=O)[nH]c2=O)C[C@H]1N=[N+]=[N-] (some centres undefined) | -1.24 |

====

Test: Partition coefficient (logP)
Format: physicochemical
Settings: octanol/water
Measured Property: logP

| Molecule | Measured Property | Numeric Value |
| --- | --- | --- |
| CNC(=O)[C@H](Cc1c[nH]c2ccccc12)NP(=O)(O)OC[C@H]1OC(n2cc(C)c(=O)[nH]c2=O)C[C@H]1N=[N+]=[N-] (some centres undefined) | logP | -1.38 |
| CNC(=O)[C@@H](Cc1c[nH]c2ccccc12)NP(=O)(O)OC[C@H]1OC(n2cc(C)c(=O)[nH]c2=O)C[C@H]1N=[N+]=[N-] (some centres undefined) | logP | -1.89 |
| Cc1cn(C2C[C@@H](N=[N+]=[N-])[C@@H](COP(=O)(O)N[C@@H](Cc3c[nH]c4ccccc34)C(=O)NC(C)C)O2)c(=O)[nH]c1=O (some centres undefined) | logP | -1.3 |
| CNC(=O)[C@H](Cc1ccccc1)NP(=O)(O)OC[C@H]1OC(n2cc(C)c(=O)[nH]c2=O)C[C@H]1N=[N+]=[N-] (some centres undefined) | logP | -1.49 |

====

Assay: Partition coefficient (logP)
Assay type: physicochemical
Details: octanol/water
Measured Property: logP

[a] CNC(=O)CNP(=O)(O)OC[C@H]1O[C@@H](n2cc(C)c(=O)[nH]c2=O)C[C@@H]1N=[N+]=[N-]
[b] COC(=O)[C@H](Cc1ccccc1)NP(=O)(O)OC[C@H]1O[C@@H](n2cc(C)c(=O)[nH]c2=O)C[C@@H]1N=[N+]=[N-]
[c] COC(=O)[C@H](Cc1c[nH]c2ccccc12)NP(=O)(O)OC[C@H]1O[C@@H](n2cc(C)c(=O)[nH]c2=O)C[C@@H]1N=[N+]=[N-]
Hey, quick one: sort these by logP, low to high? Note for the reader: the ranking is given by listing the labels in the order requested.
b, a, c
(b: -1.84, a: -1.15, c: -0.686)

====

Assay: Partition coefficient (logP)
Assay type: physicochemical
Details: octanol/water
Measured Property: logP

| Molecule | logP |
| --- | --- |
| COC(=O)[C@H](Cc1ccc(O)cc1)NP(=O)(O)OC[C@H]1OC(n2cc(C)c(=O)[nH]c2=O)C[C@H]1N=[N+]=[N-] (stereo partly specified) | -1.59 |
| COC(=O)[C@H](C)NP(=O)(O)OC[C@H]1OC(n2cc(C)c(=O)[nH]c2=O)C[C@H]1N=[N+]=[N-] (stereo partly specified) | -1.25 |
| COC(=O)[C@@H](Cc1ccccc1)NP(=O)(O)OC[C@H]1O[C@@H](n2cc(C)c(=O)[nH]c2=O)C[C@@H]1N=[N+]=[N-] | -1.33 |
| CCNC(=O)[C@H](Cc1c[nH]c2ccccc12)NP(=O)(O)OC[C@H]1OC(n2cc(C)c(=O)[nH]c2=O)C[C@H]1N=[N+]=[N-] (stereo partly specified) | -1.53 |
| COC(=O)[C@H](CC(C)C)NP(=O)(O)OC[C@H]1OC(n2cc(C)c(=O)[nH]c2=O)C[C@H]1N=[N+]=[N-] (stereo partly specified) | -1.5 |
| CNC(=O)[C@@H](NP(=O)(O)OC[C@H]1OC(n2cc(C)c(=O)[nH]c2=O)C[C@H]1N=[N+]=[N-])C(C)C (stereo partly specified) | -1.64 |
| COC(=O)[C@@H](NP(=O)(O)OC[C@H]1OC(n2cc(C)c(=O)[nH]c2=O)C[C@H]1N=[N+]=[N-])C(C)C (stereo partly specified) | -1.56 |
| CNC(=O)[C@H](CC(C)C)NP(=O)(O)OC[C@H]1OC(n2cc(C)c(=O)[nH]c2=O)C[C@H]1N=[N+]=[N-] (stereo partly specified) | -1.52 |
| CNC(=O)[C@H](Cc1ccc(O)cc1)NP(=O)(O)OC[C@H]1OC(n2cc(C)c(=O)[nH]c2=O)C[C@H]1N=[N+]=[N-] (stereo partly specified) | -1.38 |
| COC(=O)[C@@H](Cc1c[nH]c2ccccc12)NP(=O)(O)OC[C@H]1O[C@@H](n2cc(C)c(=O)[nH]c2=O)C[C@@H]1N=[N+]=[N-] | -1.36 |
| Cc1cn(C2C[C@@H](N=[N+]=[N-])[C@@H](COP(=O)(O)N[C@@H](Cc3c[nH]c4ccccc34)C(=O)NC3CC3)O2)c(=O)[nH]c1=O (stereo partly specified) | -1.39 |
